tested on: TK-10
# note: exactly 70 nM is not below, so it is N; use Y for GI50 strictly under it

Worked examples, 4 compounds total:
>>> group_label("COc1ccc(S(=O)(=O)Nc2c(/C=C\\c3cc(OC)c(OC)c(OC)c3)ccc(OC)c2O)cc1 [17a]")
"N"
>>> group_label("COc1ccc(/C=C\\c2cc(OC)c(OC)c(OC)c2)c(NS(=O)(=O)c2ccc(Cl)cc2)c1O [17c]")
"N"
>>> group_label("COc1ccc(S(=O)(=O)Nc2cc(/C=C\\c3cc(OC)c(OC)c(OC)c3)cc(OC)c2OC)cc1 [13a]")
"Y"
>>> group_label("COc1cc(/C=C\\c2cc(OC)c(OC)c(OC)c2)cc(NS(=O)(=O)c2ccc(Cl)cc2)c1OC [13c]")
"N"

Next, consider the following compound.
Lookup: is_below(GI50, 70 nM) for COc1ccc(S(=O)(=O)Nc2cc(/C=C\c3cc(OC)c(OC)c(OC)c3)ccc2OC)cc1 [12a] ?
Found: N
